Would you kindly list IC50 for each of these compounds?
assay: Inhibition of bacterial topoisomerase 4; parameters: species or system Bacteria
Give bare numbers, in µg/mL.

{"compound": "COc1ccc2nccc(-n3cc4c(n3)CCC(NCc3ccc5c(c3)NC(=O)CS5)C4)c2c1 (stereo unspecified)", "unit.tag": "µg/mL", "IC50": 0.03}
{"compound": "COc1ccc2nccc(-n3cc4c(n3)CCC(NCc3ccc5c(c3)NC(=O)CS5)C4)c2n1 (stereo unspecified)", "unit.tag": "µg/mL", "IC50": 0.016}
{"compound": "COc1ccc2nccc(-n3cc4c(n3)CCC(NC(=O)c3ccc5c(c3)NC(=O)CS5)C4)c2n1 (stereo unspecified)", "unit.tag": "µg/mL", "IC50": 0.25}
{"compound": "COc1ccc2nccc(-n3cc4c(n3)CCC(NCc3ccc5c(c3)OCCO5)C4)c2c1 (stereo unspecified)", "unit.tag": "µg/mL", "IC50": 0.06}
{"compound": "COc1ccc2nccc(-n3cc4c(n3)CCC(NC(=O)c3ccc5c(c3)NC(=O)CS5)C4)c2c1 (stereo unspecified)", "unit.tag": "µg/mL", "IC50": 0.125}

Alright, here's another compound for you.
Assign IC50 to the following record: COc1ccc2nccc(-n3cc4c(n3)CC(NC(=O)c3ccc5c(c3)NC(=O)CS5)CC4)c2c1 (stereo unspecified)
0.5
